Please go through the items and note down their pIC50.
# studySystem: Histone deacetylase 5 (Homo sapiens, UniProt Q9UQL6)
# Sequence (Q9UQL6 whole entry): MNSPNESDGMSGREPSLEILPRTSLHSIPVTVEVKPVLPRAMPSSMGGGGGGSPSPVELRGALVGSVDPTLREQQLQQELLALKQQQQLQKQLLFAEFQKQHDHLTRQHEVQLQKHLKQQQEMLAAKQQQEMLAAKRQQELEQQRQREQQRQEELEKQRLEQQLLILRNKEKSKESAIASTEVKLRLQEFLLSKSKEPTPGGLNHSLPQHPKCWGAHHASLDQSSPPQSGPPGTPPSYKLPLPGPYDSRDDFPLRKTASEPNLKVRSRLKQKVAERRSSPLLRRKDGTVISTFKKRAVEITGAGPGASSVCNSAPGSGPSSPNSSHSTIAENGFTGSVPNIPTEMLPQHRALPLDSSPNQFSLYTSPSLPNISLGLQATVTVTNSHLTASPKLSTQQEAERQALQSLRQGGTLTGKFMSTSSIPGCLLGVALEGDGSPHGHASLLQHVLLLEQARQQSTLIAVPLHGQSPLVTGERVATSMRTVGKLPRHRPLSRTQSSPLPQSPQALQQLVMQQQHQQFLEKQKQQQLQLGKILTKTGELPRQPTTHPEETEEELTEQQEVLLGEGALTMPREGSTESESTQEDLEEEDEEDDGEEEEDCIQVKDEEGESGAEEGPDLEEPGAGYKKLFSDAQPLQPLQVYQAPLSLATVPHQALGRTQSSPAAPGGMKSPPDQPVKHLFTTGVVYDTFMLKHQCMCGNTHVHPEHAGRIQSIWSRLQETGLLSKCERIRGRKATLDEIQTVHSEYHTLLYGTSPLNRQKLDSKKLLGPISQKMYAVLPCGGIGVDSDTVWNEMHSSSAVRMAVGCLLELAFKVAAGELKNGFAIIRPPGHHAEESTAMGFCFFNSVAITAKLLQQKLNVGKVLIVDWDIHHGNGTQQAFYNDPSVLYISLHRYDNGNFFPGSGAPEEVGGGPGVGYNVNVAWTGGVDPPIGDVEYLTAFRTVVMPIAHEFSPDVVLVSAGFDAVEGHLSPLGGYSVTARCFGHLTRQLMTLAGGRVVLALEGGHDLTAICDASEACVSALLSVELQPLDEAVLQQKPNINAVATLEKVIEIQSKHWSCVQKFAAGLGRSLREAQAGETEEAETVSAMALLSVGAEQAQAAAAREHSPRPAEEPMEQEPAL
# procedureDetails: Inhibition of recombinant HDAC5 (unknown origin) using Boc-Lys (trifluoroacetyl)AMC as substrate preincubated for 1 hrs followed by substrate addition and measured after 2 hrs by fluorescence based microplate reader analysis
pIC50: −log10 of the molar value.

>>> df
                                 smilestext  result
0  CCNNC(=O)c1cc(F)c(CN2c3ccccc3C=Cc3ccncc32)cc1F  < 5.00

From here, focus on the item given below.
Summary line: `CCNNC(=O)c1ccc(CN2c3ccccc3C=Cc3ccncc32)c(F)c1` , Histone deacetylase 5 (Homo sapiens, UniProt Q9UQL6), reported pIC50 = < 5.00
